Value source: ChEMBL document CHEMBL4819061

Below, each entry is listed alongside its reported inhibition.
target: RAC-alpha serine/threonine-protein kinase (Homo sapiens) (UniProt P31749); test: Inhibition of AKT phosphorylation at Ser473 residue in human HT-1080 cells at 20 uM after 15 mins by Western blotting analysis; conditions: time 15.0 mins
Sequence (P31749 whole entry): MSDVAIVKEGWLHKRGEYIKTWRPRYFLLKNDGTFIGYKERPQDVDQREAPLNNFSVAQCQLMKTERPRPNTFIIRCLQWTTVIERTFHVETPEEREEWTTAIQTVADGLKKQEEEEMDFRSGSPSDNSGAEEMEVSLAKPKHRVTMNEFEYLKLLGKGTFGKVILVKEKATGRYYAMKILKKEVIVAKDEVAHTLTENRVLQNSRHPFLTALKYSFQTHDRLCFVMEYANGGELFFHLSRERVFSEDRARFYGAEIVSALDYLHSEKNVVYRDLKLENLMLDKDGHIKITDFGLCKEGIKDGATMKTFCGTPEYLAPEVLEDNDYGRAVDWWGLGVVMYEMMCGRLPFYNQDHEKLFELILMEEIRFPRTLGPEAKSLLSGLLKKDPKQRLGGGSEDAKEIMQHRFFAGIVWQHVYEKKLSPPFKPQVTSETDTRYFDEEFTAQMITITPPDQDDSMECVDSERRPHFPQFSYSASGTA

>  <TEST SMILES>
COc1ccc(Cn2nc(-c3ccccc3)c3cc(C(=N)Nc4ccc(N5CCN(C)CC5)cc4)ncc32)cc1

>  <VALUE MEASURED>
100%

$$$$
>  <TEST SMILES>
CN1CCN(c2ccc(NC(=N)c3cc4c(-c5ccccc5)n[nH]c4c(NC4CCCCC4)n3)cc2)CC1

>  <VALUE MEASURED>
100%

$$$$

I looked up COc1ccc(Cn2nc(-c3ccccc3)c3cc(C(=N)Nc4ccc(N5CCN(C)CC5)cc4)nc(N4CCOCC4)c32)cc1 and its inhibition for RAC-alpha serine/threonine-protein kinase (Homo sapiens) (UniProt P31749) was 100%
